The measurements presented in this section are drawn from patent US20220177604A1.

# assayedSystem: T1, human immunoglobulin E (hIgE) (human, UniProt P01854-1 1-428)
# T1 construct: also called human IgE; Native IgE (Abcam)
# T1 sequence (P01854 whole entry): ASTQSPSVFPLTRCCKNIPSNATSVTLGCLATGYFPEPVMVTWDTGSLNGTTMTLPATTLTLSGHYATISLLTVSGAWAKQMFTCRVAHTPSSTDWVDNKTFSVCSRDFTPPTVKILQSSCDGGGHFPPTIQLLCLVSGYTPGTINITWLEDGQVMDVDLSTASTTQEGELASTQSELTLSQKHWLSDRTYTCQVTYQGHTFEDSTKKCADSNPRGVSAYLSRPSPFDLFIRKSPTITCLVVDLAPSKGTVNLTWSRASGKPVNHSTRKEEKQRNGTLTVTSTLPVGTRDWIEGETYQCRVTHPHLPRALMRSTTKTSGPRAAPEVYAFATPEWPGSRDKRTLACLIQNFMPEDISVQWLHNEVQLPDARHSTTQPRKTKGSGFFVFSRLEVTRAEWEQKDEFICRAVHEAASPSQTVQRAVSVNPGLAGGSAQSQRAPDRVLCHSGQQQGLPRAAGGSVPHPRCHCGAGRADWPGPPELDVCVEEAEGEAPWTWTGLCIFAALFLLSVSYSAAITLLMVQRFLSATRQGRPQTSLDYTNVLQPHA
# testDetails: competition ELISA, biotin-hIgE to coated hFcεRIα, pH 6
quantity: IC50 (nM)
Just the number please, in nM, no unit attached.

Ask: Form field: reported IC50 of 20D5 human IgG1 mAb (antibody, V domains shown, also called clone 20D5) VH: QLQLVESGGGLVQPGGSLRLSCAASGFAFSSYVMTWVRQAPGKGLEWVSSIYSDGSHTYYADSVKDRFTISRDNAKNTLFLQMNSLKSEDTAVYYCAKDAEYYSGSYYYTDTKYDYWGQGTQVTVSS VL: SSALTQPSALSVTLGQTAKITCQGGSLGSSYAHWYQQKPGQAPVLVIYADDSRPSGIPERFSGSSSGGTATLTISGAQAEDEGDYYCQSADSSGNAVFGGGTHLTVL
Reply: 39.1
